Data provenance is PubChem BioAssay (NCI).

Test system: HOP-92 NSCLC
METHOD_NOTES: NCI-60 one-dose screen, 48 h
EXPERIMENTAL_PARAMETERS: 10 µM
Description: Growth inhibition of the HOP-92 human Non-Small Cell Lung tumor cell line is measured as a screen for anti-cancer activity. Cells are grown in 96 well plates and exposed to the test compound for 48 hours. Compounds are tested at a single concentration, which is 10^-5 M for most compounds. The reported endpoint is percent growth (GI% or GIPRCNT), where numbers from 0 - 100% represent growth inhibition, and numbers from -100% - 0 represent cell death. […]
This is part of a sample that, as a whole, favours compounds with a hit. Of some 83,000 tested, about 20% had one in any assay. Activity calls are given as the source filed them. The calls were made as follows: active = growth percent below 10; inactive = the rest.
Return exactly one item of active, inactive

Solved entries:
O=c1[nH]c2ccc(Cl)cc2cc1CSc1ccc(Nc2nccc(-c3ccc4ccccc4c3)n2)cc1: inactive
COc1ccc(C(=O)NC(=S)N2CCN(c3ncnc4c3cnn4-c3ccccc3)CC2)cc1: inactive
O=C(Cc1ccc2c(c1)CN(C1CCC(=O)NC1=O)C2=O)NCCc1ccccc1 (centres undefined): active
COc1ccc2nc(Cl)c(-c3cc(-c4ccccc4)nc(=S)[nH]3)cc2c1: inactive
O=C(N/N=C/c1ccc(-c2cccc([N+](=O)[O-])c2)o1)c1[nH]c2ccc(Br)cc2c1-c1ccccc1: inactive

Query block: Query: recorded result category for "O=C(NCCCCC(c1ccc(F)cc1)c1ccc(F)cc1)NCCCc1cccnc1" in this test
Result block: inactive

Query block: Follow-up entry: "N#Cc1c(-c2ccc(F)cc2)nc(SCc2ccc([N+](=O)[O-])cc2)nc1N1CCOCC1"
Result block: inactive

Query block: Follow-up entry: "N#Cc1c(NC(=O)c2ccc(C(F)(F)F)cc2)sc2c1CCC(O)=C2"
Result block: inactive

Query block: Follow-up entry: "O=c1[nH]c2ccccc2cc1CSc1ccc(Nc2nccc(-c3ccc(Cl)cc3)n2)cc1"
Result block: active

Query block: Follow-up entry: "CN(C(=O)c1ccc(C(C)(C)C)cc1)c1sc2c(c1C#N)CCC(=O)C2"
Result block: inactive

Query block: Follow-up entry: "CC(=O)Nc1ccc(-n2cnc3cc(-c4ccc(O)cc4)ccc32)cc1C"
Result block: inactive

Query block: Follow-up entry: "Cc1noc2c(Cc3ccccc3)nn(CC(=O)N/N=C/c3ccc(Br)cc3)c(=O)c12"
Result block: inactive

Query block: Follow-up entry: "Cc1ccc2nc(COc3ccc(C(=O)NNC(=S)NCCc4ccccc4)cc3)[nH]c2c1"
Result block: active

Query block: Follow-up entry: "CCCCCCCCCCCCCCCCCCCC(=O)NCCc1c[nH]c2ccc(OC(=O)CCCC(=O)OCCOOCCOOCCOOCCOOCCOOCCOOCCOOCCOOCCOOCCOOCCOOCCOC)cc12"
Result block: inactive

Query block: Follow-up entry: CCC(C)S(=O)(=O)c1oc(-c2ccc(C)cc2)nc1S(=O)(=O)c1ccccc1 (centres undefined)
Result block: active

Query block: Follow-up entry: COc1ccccc1[C@H]1C(C(=O)c2ccc(Cl)cc2)C2(N[C@@H]1c1ccccc1)C(=O)Nc1ccccc12 (some centres undefined)
Result block: active

Query block: Follow-up entry: "O=C(Nc1nc2ccc([N+](=O)[O-])cc2s1)Nc1cc(Cl)ccc1I"
Result block: active

Query block: Follow-up entry: "N#Cc1c(NC(=O)c2cccc(C(F)(F)F)c2)sc2c1CCC(O)=C2"
Result block: inactive

Query block: Follow-up entry: "COc1ccc(C(=O)/C=C/c2cc(F)cc(C(F)(F)F)c2)cc1S(N)(=O)=O"
Result block: active
